Readings of log10 of ED50 for the listed molecules
species: Rattus norvegicus; assay: Narcotic agonist activity in rat by writhing test; assay type: functional
Hi team, quick reminder: these entries are log10 of ED50 (mg/kg).

Answered cases to consult:
{"Molecule": "CN1CC[C@]23c4c5ccc(O)c4O[C@H]2C(=O)CC[C@@]3(O)[C@H]1C5 [OXYMORPHONE]", "log10 of ED50": -1.70}
{"Molecule": "O=C1CC[C@@]2(O)[C@H]3Cc4ccc(O)c5c4[C@@]2(CCN3CC2CC2)[C@H]1O5 [NALTREXONE]", "log10 of ED50": -0.85}
{"Molecule": "CN1CC[C@]23c4c5ccc(O)c4O[C@H]2[C@@H](O)C=C[C@H]3[C@H]1C5 [MORPHINE]", "log10 of ED50": -0.59}
{"Molecule": "O=C1CC[C@@]2(O)[C@H]3Cc4ccc(O)c5c4[C@@]2(CCN3CC2CCC2)[C@H]1O5", "log10 of ED50": -1.22}
{"Molecule": "CC(C)=CCN1CC[C@]23c4c5ccc(O)c4O[C@H]2C(=O)CC[C@@]3(O)[C@H]1C5 [NALMEXONE]", "log10 of ED50": -0.13}

[Q] Kindly indicate its recorded log10 of ED50. Item: C=CCN1CC[C@]23c4c5ccc(O)c4O[C@H]2[C@@H](O)C=C[C@H]3[C@H]1C5 [NALORPHINE]
[A] 0.00

---

species on record: Sus scrofa; assay: Agonist activity at pig ileum opioid receptor; type: tissue-based
Reported property: ID50 (nM)
Please state the figure in nM; there is no need to write the unit.

Solved cases below.
{"Compound": "O=C1CC[C@@]2(O)[C@H]3Cc4ccc(O)c5c4[C@@]2(CCN3CC2CCC2)[C@H]1O5", "Endpoint unit": "nM", "ID50": 60}
{"Compound": "CN1CC[C@]23c4c5ccc(O)c4O[C@H]2C(=O)CC[C@@]3(O)[C@H]1C5", "Endpoint unit": "nM", "ID50": 12.1}
{"Compound": "C=CCN1CC[C@]23c4c5ccc(O)c4O[C@H]2[C@@H](O)C=C[C@H]3[C@H]1C5", "Endpoint unit": "nM", "ID50": 24.3}

[Q] Indicate the recorded ID50 value for this compound: CC(C)=CCN1CC[C@]23c4c5ccc(O)c4O[C@H]2C(=O)CC[C@@]3(O)[C@H]1C5 [NALMEXONE]
[A] 400

---

organism: Sus scrofa; experiment: Binding affinity to pig ileum opioid receptor; type: tissue-based
Reported property: Ke (nM)
Give just the numeric value; nM need not be written.

Solved cases (3 shown):
{"Molecule": "O=C1CC[C@@]2(O)[C@H]3Cc4ccc(O)c5c4[C@@]2(CCN3CC2CCC2)[C@H]1O5", "Measured result": 3}
{"Molecule": "CN1CC[C@]23c4c5ccc(O)c4O[C@H]2C(=O)CC[C@@]3(O)[C@H]1C5", "Measured result": 11.2}
{"Molecule": "CC(C)=CCN1CC[C@]23c4c5ccc(O)c4O[C@H]2C(=O)CC[C@@]3(O)[C@H]1C5 [NALMEXONE]", "Measured result": 43}

Moving on to the next molecule.
[Q] Query Ke for O=C1CC[C@@]2(O)[C@H]3Cc4ccc(O)c5c4[C@@]2(CCN3CC2CC2)[C@H]1O5 [NALTREXONE]
[A] 0.38
